# Assay Summary: chemical genetic growth profiling, strain panel (AID 1159580);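 also: tested at 20 µM; growth read once vehicle control cultures reached saturation at 30 °C; 1 = growth at the plate median or of vehicle wells; lower values mean less growth of the strain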
# Protocol Conditions: S. cerevisiae deletion strains, growth OD, locus YCL061C, strain MRC1 (second series), hits give low values
Out of some 5,500 compounds screened, about 2,000 (36%) were called active. Another 18% or so got no clear call; they are omitted. This is one part of the list.
Readout Label: normalized growth
Write the number on its own, no unit after it.

Please review the entries below; each comes with its answer.
*Q* Provide one value: measured normalized growth of CC(C)(C)c1cc(/C=C(\C#N)C(N)=S)cc(C(C)(C)C)c1O
*A* 1.01

*Q* Provide one value: measured normalized growth of OC[C@H]1O[C@@H](n2cnc3c(N[C@H]4CC5CCC4C5)ncnc32)[C@H](O)[C@@H]1O (stereo not given in full)
*A* 1.01

*Q* Provide one value: measured normalized growth of CCCn1c(=O)c2[nH]c(C3CCCC3)nc2n(CCCOC(=O)c2ccc(S(=O)(=O)F)cc2)c1=O
*A* 1.01

Further cases:
*Q* Provide one value: measured normalized growth of NC(=O)CN1CCCC1=O
*A* 1

*Q* Provide one value: measured normalized growth of C[C@H](O)C(=O)C1=Nc2c(nc(N)[nH]c2=O)NC1
*A* 0.983

*Q* Provide one value: measured normalized growth of CCN(Cc1ccncc1)C(=O)C(CO)c1ccccc1 (stereo not given)
*A* 1.01

*Q* Provide one value: measured normalized growth of N[C@@H](COP(=O)(O)O)C(=O)O
*A* 0.989

*Q* Provide one value: measured normalized growth of Cc1cn([C@H]2C=C[C@@H](CO)O2)c(=O)[nH]c1=O
*A* 1.01

*Q* Provide one value: measured normalized growth of O=C(O)Cc1cnc[nH]1
*A* 1.02

*Q* Provide one value: measured normalized growth of CC1(C)CCC(NC(=O)[C@@H](N)CCC(=O)O)CC1
*A* 0.999

====

Reported normalized growth is given for each of the following molecules.
# Assay Summary: chemical genetic growth profiling, strain panel (AID 1159580);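 also: tested at 20 µM; growth read once vehicle control cultures reached saturation at 30 °C; 1 = growth at the plate median or of vehicle wells; lower values mean less growth of the strain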
# Protocol Conditions: S. cerevisiae deletion strains, growth OD, locus YLR342W, strain FKS1 (second series), hits give low values
Among all 5,500 compounds or so, about 2,000 (36%) were called active. Not shown: some 18% with an inconclusive outcome. This is one part of the list.
Write the number on its own, no unit after it.

*Q* Provide one value: measured normalized growth of CC(C)c1c(O)c(-c2cc3c(c(C(C)C)c2O)CCC2C(C)(C)CCC[C@]32C)cc2c1CCC1C(C)(C)CCC[C@]21C (stereo partly specified)
*A* 1.04

*Q* Provide one value: measured normalized growth of CC(=O)OC(C)C[N+](C)(C)C (stereo unspecified)
*A* 1.05

*Q* Provide one value: measured normalized growth of COc1ccc2c(c1)CCC1C2CC[C@@]2(C)C1CC[C@@H]2O (stereo partly specified)
*A* 0.398

*Q* Provide one value: measured normalized growth of CC(C)c1c(O)ccc2c1CCC1C(C)(C)CCC[C@]21C (stereo partly specified)
*A* 0.139

*Q* Provide one value: measured normalized growth of COc1ccc(-c2cc(=O)c3c(O)cc(O[C@H]4O[C@H](CO[C@@H]5O[C@@H](C)[C@H](O)[C@@H](O)[C@H]5O)[C@@H](O)[C@H](O)[C@H]4O)cc3o2)cc1
*A* 1.01

*Q* Provide one value: measured normalized growth of CC1CC[C@@]2(OC1)O[C@H]1CC3C4CC[C@@H]5C[C@@H](O)CC[C@]5(C)C4CC[C@]3(C)[C@H]1[C@@H]2C (stereo partly specified)
*A* 1.03

*Q* Provide one value: measured normalized growth of CCCCCCCCCCCCCCCCCC(=O)OC(CC(=O)O)C[N+](C)(C)C (stereo unspecified)
*A* 0.102

*Q* Provide one value: measured normalized growth of COc1ccc2c(c1)CCC1C2CCC2(C)C1C[C@@H](O)C2O (stereo partly specified)
*A* 0.912

Further cases:
*Q* Provide one value: measured normalized growth of COc1ccc2c(c1C(C)C)CCC1C(C)(C)C(=O)CCC21C (stereo unspecified)
*A* 0.973

*Q* Provide one value: measured normalized growth of COC(=O)C[C@H]1C(C)(C)C2(Cl)O[C@@]34CC2C(=O)[C@]1(C)C3CC[C@]1(C)C4=CC(=O)O[C@H]1c1ccoc1 (stereo partly specified)
*A* 1.02

*Q* Provide one value: measured normalized growth of CCC(=O)c1c(O)cc(O)cc1O
*A* 1

*Q* Provide one value: measured normalized growth of C[C@]12CCC3c4ccc(O)cc4CCC3C1C[C@@H](O)[C@@H]2O (stereo partly specified)
*A* 0.999

*Q* Provide one value: measured normalized growth of C[C@@H]([C@H](O)c1ccccc1)N(C)C
*A* 1.03
